# system_name: Dickkopf-related protein 1 (Homo sapiens) (UniProt O94907)
# Sequence (O94907 whole entry, looked up): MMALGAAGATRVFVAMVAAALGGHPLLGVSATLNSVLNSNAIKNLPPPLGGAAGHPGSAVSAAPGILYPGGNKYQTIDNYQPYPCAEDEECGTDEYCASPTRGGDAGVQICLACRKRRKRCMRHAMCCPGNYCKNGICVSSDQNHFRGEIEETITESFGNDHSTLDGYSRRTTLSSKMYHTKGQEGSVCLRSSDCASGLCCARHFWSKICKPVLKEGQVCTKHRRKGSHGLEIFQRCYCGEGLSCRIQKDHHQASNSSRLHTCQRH
# assay: DKK1 binders on small-molecule microarrays, primary screen, biochemical, small-molecule microarray, 635 nm fluorescence scan (AID 1106);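 also: score merges emission near 667 nm with signal to noise over three replicate slides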
# condition_summary: DKK1 binding, higher = more signal
composite z-score vs 0.5: at or above is Yes, below is No.

molecule=C=CCN1C(=O)[C@]2(O[C@H](CCn3cc(CCO)nn3)[C@@H]([Si](C)(C)c3ccc(OC)cc3)[C@@H]2C)c2cc(NC(=O)c3ccc(OC)cc3)ccc21 discrete_label=Yes
molecule=CC(=O)NCCCC[C@@H]1NC(=O)[C@@H]2C[C@H](C(=O)NCCCCCNC(=O)CS)[C@H](c3ccc(O)cc3)N2C1=O discrete_label=Yes
molecule=CCOC(=O)C[C@H]1[C@H](OC(=O)Cc2ccc3c(c2)OCO3)[C@@H](NC(=O)c2ccc3ccccc3c2)c2cc(OCCCO)ccc2N1C(=O)Cc1ccc(OC)cc1 discrete_label=No
molecule=C[C@H]1COC(=O)[C@H](Cc2ccccc2)NC(=O)[C@@H](C)COC(=O)[C@H](Cc2ccccc2)NC1=O discrete_label=Yes
molecule=[N-]=[N+]=NCc1ccccc1C[C@]1(C(=O)N2CCCCC2)N=C(c2ccc(OCCCO)cc2)O[C@H]1c1ccccc1CN=[N+]=[N-] discrete_label=No
molecule=CO[C@H]1COC(=O)[C@H](C)NC(=O)CC=C[C@@H](C)[C@H](NS(=O)(=O)c2ccc(C)cc2)COC(=O)[C@@H](OCc2ccccc2)C=C[C@@H]1C discrete_label=Yes
molecule="COC(=O)C1=CC(c2ccc(CO)cc2)=CC(c2cccs2)N(Cc2cccc(OC(F)(F)F)c2)C=C1C(=O)OC (stereo unspecified)" discrete_label=No
molecule=C=C(/C(=C/C[C@@H](OC(=O)c1ccncc1)c1ccc(CO)o1)c1cnc2ccccc2c1)C(C)C discrete_label=Yes
molecule="O=C1C2C=CC(C(O)c3ccccc3)N(n3cnnc3)C2C(=O)N1Cc1ccccc1 (stereo unspecified)" discrete_label=No
molecule=COc1ccc([Si](C)(C)[C@H]2[C@H](CC(=O)N(CCO)Cc3ccccc3)O[C@@]3(C(=O)N(C)c4ccccc43)[C@@H]2C)cc1 discrete_label=Yes
molecule=Cc1ccc(N2C(=O)c3ccccc3[C@@H](C(=O)NCc3ccccc3)[C@@H]2c2ccc(CO)cc2)nc1 discrete_label=No
molecule=CO[C@H]1O[C@H](CO)[C@@H](OC(=O)CCc2ccccc2)[C@@H]2OC(=O)[C@H](Cc3cccc(Br)c3)C/C=C/C[C@@H](Cc3cccc(Br)c3)C(=O)O[C@@H]12 discrete_label=No
molecule=Cc1ccc(S(=O)(=O)c2cc3oc2CC[C@@H](CO)NC(=O)N(C)Cc2cn(nn2)C[C@H](Cc2ccccc2)NC3=O)cc1 discrete_label=No
molecule=O=C(NCc1ccccc1)c1ccc(Br)cc1[N+](=O)[O-] discrete_label=No
molecule=COC(=O)C[C@H]1O[C@]2(C(=O)N(Cc3ccccc3)c3ccc(I)cc32)[C@@H](C)[C@@H]1[Si](C)(C)c1ccc(OC)cc1 discrete_label=No
molecule=C[C@H]1COC(=O)[C@@H]2CCCN2C(=O)[C@@H](C)COC(=O)[C@@H]2CCCN2C1=O discrete_label=Yes
molecule=CO[C@H]1COC(=O)CC=C[C@@H](C)COC(=O)[C@@H](C)NC(=O)CC=C[C@@H]1C discrete_label=Yes
molecule=CO[C@H]1COC(=O)CC=C[C@H](C)[C@@H](OC)COC(=O)[C@H](Cc2ccccc2)NC(=O)CC=C[C@@H]1C discrete_label=Yes
molecule="O=C1OCCC/C=C\\[C@H]2OC34C=CCN(CCN5CCOCC5)C(=O)[C@H]3N(CCCCCO)C(=O)[C@@H]4C12 (stereo partly specified)" discrete_label=No
molecule=O=[N+]([O-])c1ccc(C[n+]2ccc3ccc(O)cc3c2)o1 discrete_label=No
